Kindly supply the reported GI50 values for the records listed here.
# Tested on: OVCAR-5
# method summary: NCI tumour cell line growth inhibition, 48 h
Activity calls are given as the source filed them. No stated cut-off is given here; in the data, active = GI50 up to about 1.1 µM and inactive = higher.

COc1cc2c(cc1C)NC(=O)/C2=C\c1ccncc1: 10.9 µM (inactive)
C=C(/C=C/C=C(/CCC=C(C)C)COC(C)=O)[C@@H]1CC[C@]2([C@H](CCCO)/C(=C(/C)C=O)CC[C@]2(C)O)[C@@H]1O: 39 µM (inactive)
NC(=O)c1ccccc1NC(=O)C(=O)Cc1nc2ccccc2nc1O: 96.2 µM (inactive)
Cn1c(=O)cc(N2CCCC2)[nH]c1=O: > 100 µM (inactive)

For OVCAR-5, provide GI50 of O=C(NCCCCCCCCNC(=O)c1cc(-c2ccccc2)nc2ccccc12)c1cc(-c2ccccc2)nc2ccccc12 please. > 100 µM (inactive)

Taken from ChEMBL document CHEMBL1201862.
